GI50 values by entry
- Test system: NCI-H226
- test_name: NCI tumour cell line growth inhibition, 48 h
Active and inactive are the calls of the source. Cut-off read from the data, not from the text of the source: active = GI50 up to about 1.1 µM and inactive = higher.
recorded_endpoint: GI50

> print(dat)
                                    compound  recorded.endpoint       measured.result
 1             COc1ccc2nc(-c3ccc(N)cc3)sc2c1               GI50    34.2 µM (inactive)
 2  CC(C)(C)[Si](C)(C)OCCC1CC2(S(=O)(=O)C3=CC=C=C=C3)ON1CC2S(=O)(=O)c1ccccc1 (configuration not stated)               GI50    > 10 µM (inactive)
 3    O=C(O)c1c(-c2ccccc2)c(=O)[nH]c2ccccc12               GI50   > 100 µM (inactive)
 4  C/C(=C1/CCCC2(N=NCC2c2ccccc2)C1=O)c1ccccc1 (configuration not stated)               GI50      16 µM (inactive)
 5  CC1=NNC(=O)[C@H]2[C@H]1CCC1[C@@H]2CC[C@]2(C)[C@@H](O)CC[C@@H]12 (some centres not stated)               GI50   > 100 µM (inactive)
 6  CN(CCN1CCCC1)C1CCc2cc(Cl)c(Cl)cc2C1 (configuration not stated)               GI50    16.2 µM (inactive)
 7  CC(=O)Nc1ccc(C(=O)NN2C(=O)C(Cl)C2c2ccccc2)cc1 (configuration not stated)               GI50   > 100 µM (inactive)
 8  CCCC[S+]([O-])CCC(N)P(=O)(O)O (configuration not stated)               GI50   > 100 µM (inactive)
 9            Cc1ccn2c(=O)cc(-c3ccccc3)nc2c1               GI50   > 100 µM (inactive)
10  O=C(O)[C@H]1[C@@H](C2CCCCC2)O[C@@H](C2CCCCC2)O[C@H]1C(F)(F)F               GI50    21.1 µM (inactive)
11           CC1=CC[C@@H](C(C)(C)O)C[C@@H]1O               GI50  > 5000 µM (inactive)
12  O=C(O)c1ccccc1CN1CCCC(C(=O)O)C1 (configuration not stated)               GI50   > 100 µM (inactive)

---

- System: DLD-1
- test_name: NCI tumour cell line growth inhibition, 48 h
The source made the active and inactive calls. Cut-off read from the data, not from the text of the source: active = GI50 up to about 1.1 µM and inactive = higher.
Overview of reported GI50 across a group of compounds:
recorded_endpoint: GI50

> print(dat)
                                   compound  recorded.endpoint      measured.result
1  COC1[C@H](NC(=O)OC(C)(C)C)C(=O)N1Cc1ccccc1 (some centres undefined)               GI50  > 100 µM (inactive)
2  O=C1C(Cl)C(c2cccc([N+](=O)[O-])c2)N1n1cnc2ccccc2c1=O (centres undefined)               GI50  > 100 µM (inactive)
3  COc1ccc(C(=O)O/N=C2\CCCC\C2=C/c2ccccc2)cc1               GI50  > 100 µM (inactive)
4  Cc1c(C(=O)C/C(=N\O)C(=O)Nc2cc(Cl)c(Cl)cc2Cl)[n+]([O-])c2ccccc2[n+]1[O-]               GI50     22 µM (inactive)

---

The reader will find reported GI50 values listed item by item below.
- Test system: DU-145
- test_name: NCI tumour cell line growth inhibition, 48 h
Active and inactive are the calls of the source. No stated cut-off is given here; in the data, active = GI50 up to about 1.1 µM and inactive = higher.
recorded_endpoint: GI50

> print(dat)
                                   compound      measured.result
1  CC(C(N)=O)N(C)C(=O)c1cnc2ccccc2c1 (stereo not drawn)  > 100 µM (inactive)
2             CC(C)C(=O)/C=C/c1ccc(Cl)cc1Cl   14.2 µM (inactive)
3  CCNC(=O)/C(=C/c1ccc(OC)cc1)c1cc(OC)c(OC)c(OC)c1   13.3 µM (inactive)

---

- System: HCC 2998
- test_name: NCI tumour cell line growth inhibition, 48 h
Calls of active or inactive are those of the source. No stated cut-off is given here; in the data, active = GI50 up to about 1.1 µM and inactive = higher.

molecule	GI50
CC(C)=CC(=O)CC(=O)C(=O)NCCNC(=O)C(=O)CC(=O)C=C(C)C	> 50 µM (inactive)
CN(C)CCNC(=O)c1cccc2c(Nc3ccc(S(N)(=O)=O)cc3)c3ccccc3nc12	1.71 µM (inactive)
C/C=C/C(C#N)(Cc1ccccc1)OP1(=O)OC(c2ccccc2)C(C)N1C (stereo unspecified)	81.3 µM (inactive)
COc1ccc2c(c1)Cc1c-2[nH]c2cc3c(cc2c1=O)OCO3	11.6 µM (inactive)
C=CCSC[C@H](NC(=O)COc1ccccc1)C(=O)NC(C(=O)OCc1ccc([N+](=O)[O-])cc1)=C(C)C	> 100 µM (inactive)
O=C(O)[C@H]1[C@@H](C2CCCCC2)O[C@@H](C2CCCCC2)O[C@H]1C(F)(F)F	20 µM (inactive)
COC(=O)c1c(O)ccc2c1c1c(n2Cc2ccccc2)C(=O)c2ccccc2C1=O	5.01 µM (inactive)
O=c1ssc(Cl)c1Nc1c(Cl)ssc1=O	22.3 µM (inactive)
C=C(C)C(O)CCC1(C)C=Cc2c(c(C)cc3c2[nH]c2ccccc23)O1 (stereo unspecified)	5.65 µM (inactive)
CC(C)(N)CO[C@H]1C[C@H]2CC[C@@]1(C)C2(C)C	2.11 µM (inactive)
NC1CCCCC1.O=C(O)C(CP(=O)(O)O)=C(Cl)Cl	> 100 µM (inactive)
C#CCNC(=O)NCCCC(NC(C)=O)C(=O)NCc1ccccc1 (stereo unspecified)	> 100 µM (inactive)
C=C(CCC(=O)N(CCc1c[nH]c2ccccc12)C(=O)c1ccccc1CSCC)C(=O)OC	43.7 µM (inactive)
CCCCCCCCCc1cc(=O)c2c(O)cc(O)cc2o1	21.1 µM (inactive)
COc1ccc(N2C(=O)C3c4[nH]c5ccc(OC)cc5c4C4CCC(C(C)(C)C)CC4C3C2=O)cc1 (stereo unspecified)	45.3 µM (inactive)
CC(C)(C)OC(=O)NC1CC2(C=C(Br)C(=O)C(Br)=C2)OC1=O (stereo unspecified)	11.6 µM (inactive)
O=c1[nH]c(=O)n(C2CC(O)C(COP(=O)(O)OC3CC(n4cc(F)c(=O)[nH]c4=O)OC3COP(=O)(O)OC3CC(n4cc(F)c(=O)[nH]c4=O)OC3COP(=O)(O)OC3CC(n4cc(F)c(=O)[nH]c4=O)OC3COP(=O)(O)OC3CC(n4cc(F)c(=O)[nH]c4=O)OC3COP(=O)(O)OC3CC(n4cc(F)c(=O)[nH]c4=O)OC3COP(=O)(O)OC3CC(n4cc(F)c(=O)[nH]c4=O)OC3COP(=O)(O)OC3CC(n4cc(F)c(=O)[nH]c4=O)OC3COP(=O)(O)OC3CC(n4cc(F)c(=O)[nH]c4=O)OC3COP(=O)(O)OC3CC(n4cc(F)c(=O)[nH]c4=O)OC3CO)O2)cc1F (stereo unspecified)	0.0234 µM (active)
CO[C@H]1O[C@@H]2CO[C@@H](c3ccccc3)O[C@H]2[C@@H]2CC=CCC[C@]12O	18.5 µM (inactive)
CCOC(=O)c1c(C)cc(=O)n2c1[nH]c1ccccc12	78.7 µM (inactive)
Cc1ccccc1Cn1nc2ccccc2cc1=O	> 100 µM (inactive)
CC(O)CCCOC(c1ccccc1)(c1ccccc1)c1ccccc1 (stereo unspecified)	15.3 µM (inactive)
COCOc1cc(OC)c(Br)cc1C/C(=N/O)C(=O)OC	> 100 µM (inactive)
COc1cc2ccnc([C@@H](OC(=O)c3ccccc3)c3ccc(OC)c(OC)c3OC)c2cc1OC	36.5 µM (inactive)
Cc1c2c(ccc3ccccc32)c[n+]2ccccc12	9.46 µM (inactive)
CC1=CC[C@@H](C(C)(C)O)C[C@@H]1O	> 5000 µM (inactive)
O=C(CP(=O)(c1ccccc1)c1ccccc1)c1cccc(C(=O)CP(=O)(c2ccccc2)c2ccccc2)c1	> 100 µM (inactive)
c1cc(-c2ccc(Oc3ccc(-c4ccncc4)cc3)cc2)ccn1	5 µM (inactive)
N=C(N)N/N=C/c1c(-c2ccc([N+](=O)[O-])cc2)nc2n1CCS2	6.32 µM (inactive)
CCCCNC(=S)Nc1nc(C(=O)NNC(=S)NC2CCCCC2)cs1	> 100 µM (inactive)
CCNC(=O)/C(=C/c1ccc(OC)cc1)c1cc(OC)c(OC)c(OC)c1	4.68 µM (inactive)
CC(SC(=S)Nc1cccc(F)c1)C(=O)O (stereo unspecified)	30.9 µM (inactive)

---

- Tested on: UO-31
- test_name: NCI tumour cell line growth inhibition, 48 h
Calls of active or inactive are those of the source. Rule as the data show it: active = GI50 up to about 1.1 µM and inactive = higher.
Labels: yes (1) (active), no (0) (inactive)

compound	assigned_class
CC(C)(C)OC(=O)NC1CC2(C=C(Br)C(=O)C(Br)=C2)OC1=O (stereo not given)	no (0)
CC(C)C(=O)N[C@@H](C)C(=O)N(Cc1ccc2ccccc2c1)N=O	no (0)
Cc1cc(OCC(=O)N/N=C/C(Br)=C/c2ccccc2)nc(SCC(=O)N/N=C/C(Br)=C/c2ccccc2)n1	no (0)
C/C(=N\NC(N)=S)c1ccc(C)cc1C	no (0)
O=C1C[C@@H]2[C@@H](C=CC23CCCC3)N1O	no (0)
O=C1Cc2c(-c3ccccc3)cc(-c3ccc4ccccc4c3)nc2-c2ccccc2N1	no (0)
O=c1[nH]c2nccn2c(Cl)c1Br	no (0)
CCn1c(=O)c2c3cc(O)ccc3oc2c2ccc(O)cc21	no (0)
O=C1NC2=C(CCCCC/C2=N\O)C12CCCCCC2	no (0)
[O-][N+]1=C2CCC/C(=N/O)C2(O)C2CCCCC21N1CCOCC1 (stereo not given)	no (0)
O=c1c2ccccc2nc(Nc2cccc(Cl)c2)n1/N=C/C=C/c1ccccc1	no (0)
COc1ccc(C(=O)O/N=C2\CCCC\C2=C/c2ccccc2)cc1	no (0)
CCCC(=O)C(CC)/C(CCC(=O)N(Cc1ccccc1)Cc1ccccc1)=N/NC(=O)C[N+](C)(C)C (stereo not given)	no (0)
O=c1[nH]c2nc3ccccc3c(=O)n2/c1=C/c1ccccc1	no (0)
C=C1C(=O)O[C@@H]2C[C@@H](C)[C@@H]3C=CC(=O)[C@@]3(C)[C@@H](OC(=O)CCCC(=O)O[C@H]3[C@@H]4C(=C)C(=O)O[C@@H]4C[C@@H](C)[C@@H]4C=CC(=O)[C@]43C)[C@H]12	yes (1)
